Test system: P388 leukemia ip, CD2F1 mice, survival T/C
ASSAY REMARKS: NCI In Vivo Anticancer Drug Screen. Data for tumor model P388 Leukemia (intraperitoneal) in CD2F1 (CDF1) mice
CONDITION SET: endpoint: median survival time; dose: 200.0 mg/kg/injection; schedule: Q01DX009 (ip); vehicle: Klucel (hydroxypropylcellulose) (HPC); higher = longer survival
Description: The antitumor activity of compounds was measured in mice bearing transplantable tumors. Survival or tumor size were measured and the results are expressed as the measurement made in the treated group (T) divided by the measurement made in the vehicle treated control group (C). The tumor model used in this assay is P388 Leukemia (intraperitoneal) in CD2F1 (CDF1) mice
Inconclusive results and toxic doses are left out.
Exercise: for every item that follows, state its recorded T/C.

Recorded results for 2 compounds are shown here.
COMPOUND	T/C
CCCC(C)C1(CC(C)O)C(=O)NC(=O)NC1=O (stereo not given)	100 % of control
Cc1cc(Br)c2c(c1N)C(=O)c1ccccc1C2=O	102 % of control

Provide T/C values for the following items, in order.
1. CCOC(=O)CCCCCCCCNC(=S)N1c2c(nc(N)[nH]c2=O)NCC1CNc1ccc(C(=O)NC(CCC(=O)O)C(=O)O)cc1 (stereo not given)
2. O=C1CCC(C(Sc2ccccc2)Sc2ccccc2)C1 (stereo not given)

1: 99 % of control; 2: 93 % of control

Provide T/C values for the following items, in order.
1. CC(C)(C)OC(=O)NC(CCCCNC(=O)C(F)(F)F)C(=O)O (stereo not given)
2. Cc1ccc2nc(NC(=S)NCCCCNC(=S)Nc3ccc4cc(C)ccc4n3)ccc2c1
3. CCOC(=O)c1ccc(NC(=O)c2cccc(Cl)c2)cc1
4. CCCCCCOc1ccc(C(=O)Oc2ccc(OC(=O)c3ccc(N)cc3)cc2)cc1
5. CCCCNC(=S)NC1C2CC3CC(C2)CC1C3 (stereo not given)
6. COC1C(/C=[N+](\[O-])C2C(C3COC(C)(C)O3)OC3OC(C)(C)OC32)OC2OC(C)(C)OC21 (stereo not given)

1. 102 % of control
2. 89 % of control
3. 98 % of control
4. 100 % of control
5. 101 % of control
6. 105 % of control
